Each recorded value in this set is attributed to patent US20200085839A1.

Test system: DOHH-2 cells (DLBCL)
method_description: Cell surface BCMA by FACS
Format: cell-based, human
test_context: Homo sapiens, 24 h, read-out: BCMA (Mean Fluorescence Intensity) EC50
observation_type: EC50 (nM)
Form entry: value (nM) — number only.

Value lookup for EC50; key = `Cc1cccc2c1NC(=O)[C@@H](NC(=O)[C@H](CCC(F)(F)F)[C@H](CCC(F)(F)F)C(N)=O)N=C2c1cccc(F)c1`
0.87

----------
Tested on: RPMI-6666 cells (Hodgkin's Lymphoma)
method_description: Cell surface BCMA by FACS
Assay type: cell-based, human
test_context: Homo sapiens, 24 h, read-out: BCMA (Mean Fluorescence Intensity) EC50
observation_type: pEC50
Units for pEC50: none; it is -log10 of a concentration expressed in mol/L.

Recorded pEC50 for Cc1cccc2c1NC(=O)[C@@H](NC(=O)[C@H](CCC(F)(F)F)[C@H](CCC(F)(F)F)C(N)=O)N=C2c1cccc(F)c1 [Compound (22)] , please?
8.15

----------
Test system: TUR cells (Histiocytic Lymphoma)
method_description: Cell surface BCMA by FACS
Format: cell-based, human
test_context: Homo sapiens, read-out: mBCMA (MFI) EC50
observation_type: EC50

State the recorded EC50 for this entry: `Cc1cccc2c1NC(=O)[C@@H](NC(=O)[C@H](CCC(F)(F)F)[C@H](CCC(F)(F)F)C(N)=O)N=C2c1cccc(F)c1`
> 10 µM

----------
Test system: EB-3 cells (Burkitt's Lymphoma)
method_description: Soluble (shed) BCMA by ELISA
Type: cell-based, human
test_context: Homo sapiens, read-out: Shed BCMA (pg/ml) EC50
observation_type: EC50

What EC50 value was documented for this compound, `Cc1cccc2c1NC(=O)[C@@H](NC(=O)[C@H](CCC(F)(F)F)[C@H](CCC(F)(F)F)C(N)=O)N=C2c1cccc(F)c1` ?
> 10 µM

----------
Tested on: SR cells (Anaplastic Large Cell Lymphoma)
method_description: Cell surface BCMA by FACS
Assay type: cell-based, human
test_context: Homo sapiens, 24 h, read-out: BCMA (Mean Fluorescence Intensity) EC50
pEC50: −log10 of the molar value.
observation_type: pEC50

So what does the record say about pEC50 for `Cc1cccc2c1NC(=O)[C@@H](NC(=O)[C@H](CCC(F)(F)F)[C@H](CCC(F)(F)F)C(N)=O)N=C2c1cccc(F)c1` ?
< 5.00

----------
System: Jeko-1 cells (Mantle Cell Lymphoma)
method_description: Cell surface BCMA by FACS
Assay type: cell-based, human
test_context: Homo sapiens; Jeko-1; 24 h; read-out: BCMA (Mean Fluorescence Intensity) EC50
observation_type: EC50 (nM)
Report as a plain number; the unit nM is understood.

Need EC50, item Cc1cccc2c1NC(=O)[C@@H](NC(=O)[C@H](CCC(F)(F)F)[C@H](CCC(F)(F)F)C(N)=O)N=C2c1cccc(F)c1 [Compound (22)]
1.2

----------
System: Namalwa cells (Burkitt's Lymphoma)
method_description: Soluble (shed) BCMA by ELISA
Format: cell-based, human
test_context: Homo sapiens; Namalwa; read-out: Shed BCMA (pg/ml) EC50
observation_type: EC50 (nM)
API: value field is a number in nM; no unit string.

Could you share what EC50 was measured for `Cc1cccc2c1NC(=O)[C@@H](NC(=O)[C@H](CCC(F)(F)F)[C@H](CCC(F)(F)F)C(N)=O)N=C2c1cccc(F)c1` , tested on Namalwa cells (Burkitt's Lymphoma)?
0.6
